Molecular target: T1, human CEA on cells (MKN45, LOVO, NCI-H2122, LS174T, CT26/CEA) (human, UniProt P06731 35-685)
T1 sequence: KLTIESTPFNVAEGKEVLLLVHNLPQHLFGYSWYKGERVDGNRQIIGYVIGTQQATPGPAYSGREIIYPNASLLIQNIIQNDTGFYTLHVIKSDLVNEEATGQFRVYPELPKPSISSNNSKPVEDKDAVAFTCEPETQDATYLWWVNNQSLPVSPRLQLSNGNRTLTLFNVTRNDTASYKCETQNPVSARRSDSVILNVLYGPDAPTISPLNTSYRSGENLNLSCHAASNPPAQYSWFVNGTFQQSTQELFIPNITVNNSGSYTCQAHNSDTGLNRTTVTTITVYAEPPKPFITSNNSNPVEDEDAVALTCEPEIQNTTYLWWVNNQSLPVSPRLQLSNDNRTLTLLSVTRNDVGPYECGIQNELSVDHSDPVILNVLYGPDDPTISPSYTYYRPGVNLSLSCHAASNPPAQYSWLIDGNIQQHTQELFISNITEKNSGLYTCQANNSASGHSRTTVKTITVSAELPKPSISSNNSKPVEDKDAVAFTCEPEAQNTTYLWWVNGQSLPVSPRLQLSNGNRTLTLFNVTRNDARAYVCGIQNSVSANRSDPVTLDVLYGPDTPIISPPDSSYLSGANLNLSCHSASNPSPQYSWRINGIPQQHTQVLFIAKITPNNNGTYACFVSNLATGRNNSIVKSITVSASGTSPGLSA
Experiment: cell-based or functional assay
Some binders, each annotated with its measured Emax, cell killing of MKN45 cells.
// no unit, no text: just the number

Example entries begin here.
binder	Emax, cell killing of MKN45 cells
BGA2588 (BGA5384 conjugated with DXD) (antibody, human IgG1, kappa, V domains shown, DXD linker-payload conjugated after reduction of the antibody, DAR 8 profile (structure only as a drawing in Table 18)) VH: QVQLVQSGAEVKKPGASVKVSCKASGYIFTSYYLHWVRQAPGQGLEWIGYINPQTGKTSYAQKFQGRVTMTRDTSTSTVYMELSSLRSEDTAVYYCAREYGNYNYPLDYWGQGTLVTVSS VL: DIQMTQSPSSLSASVGDRVTITCRASENQYGYLAWYQQKPGKVPKLLIYNYKNLVEGVPSRFSGSGSGTDFTLTISSLQPEDVATYYCQHHLGTPYTFGQGTKVEIKR	85
BGA2490 (antibody, human IgG1, kappa, V domains shown, linker-payload conjugated after reduction of the antibody, DAR 8 profile (structure only as a drawing in Table 18)) VH: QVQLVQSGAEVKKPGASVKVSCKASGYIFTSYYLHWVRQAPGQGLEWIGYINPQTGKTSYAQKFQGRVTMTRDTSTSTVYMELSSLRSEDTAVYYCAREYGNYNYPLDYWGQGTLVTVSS VL: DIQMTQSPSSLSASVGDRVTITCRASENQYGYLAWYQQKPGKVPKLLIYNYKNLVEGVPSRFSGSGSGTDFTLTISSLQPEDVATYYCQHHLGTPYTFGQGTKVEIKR	89

Respond only with Emax, cell killing of MKN45 cells recorded for BGA0084 (antibody, human IgG1, kappa, V domains shown, linker-payload conjugated after reduction of the antibody, DAR 8 profile (structure only as a drawing in Table 18)) VH: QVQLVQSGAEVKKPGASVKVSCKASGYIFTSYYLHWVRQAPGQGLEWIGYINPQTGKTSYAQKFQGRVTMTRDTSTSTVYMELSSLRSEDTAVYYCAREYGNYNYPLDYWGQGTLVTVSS VL: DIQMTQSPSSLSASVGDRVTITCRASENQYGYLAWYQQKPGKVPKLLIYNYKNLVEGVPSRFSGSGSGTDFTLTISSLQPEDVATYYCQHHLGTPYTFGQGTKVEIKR
88.8
